# Tested on: NCI-H226 lung
# experimental_protocol: NCI tumour cell line growth inhibition, 48 h
measured_metric: TGI

1) CC(C)Cc1cc(-c2cccn2C)c(C#N)c(=O)[nH]1	> 100 µM
2) CS(=O)(=O)Nc1cc(-c2ccc3ncnc(Nc4ccc(OCc5ccccn5)c(Cl)c4)c3c2)cnc1Cl	11 µM
3) Cc1c2cc[n+](C)cc2c(C)c2c1[nH]c1ccc(OC(C)(C)C)cc12	> 100 µM
4) Nc1cc2c3ccccc3ccc2c2ccccc12	> 100 µM
5) O=C(Nc1ccn(C2CCC(COC(c3ccccc3)(c3ccccc3)c3ccccc3)O2)c(=O)n1)c1ccccc1 (stereo unspecified)	18 µM

Q: May I ask what TGI has been recorded for O=C(C#Cc1ccccc1)N1CCCCC1 ?
Result: > 100 µM

Q: How about C#CCN1C(=O)CN2C(Cl)(Cl)C2(c2ccccc2)c2cc(Cl)ccc21 (stereo unspecified) ?
Result: > 100 µM

Q: How about CCN1C(=O)N(CC)C2C1NN=c1s/c(=C\c3ccc(Br)cc3)c(=O)n12 (stereo unspecified) ?
Result: > 100 µM

Q: How about Cc1cc(C2CC(O)C(CO)O2)c(Br)cc1Br (stereo unspecified) ?
Result: > 100 µM

Q: How about C#Cc1cccc(NC(=O)C2CCCCN2C(=O)CCl)c1 (stereo unspecified) ?
Result: > 82.5 µM

Q: How about O=[N+]([O-])c1cc(-c2ccc([As](=O)(O)O)cc2)ccc1[As](=O)(O)O ?
Result: > 100 µM

Q: How about Cc1nc2cc3[nH]c4ccccc4c(=O)c3cc2s1 ?
Result: > 100 µM

====

# System: OVCAR-8 ovarian
# experimental_protocol: NCI tumour cell line growth inhibition, 48 h
Below is a list of entries, each paired with its recorded TGI value.

These solved cases illustrate the format of a correct answer.
1. CN1CN(c2ccccc2)C2(CCN(C(=O)OC(C)(C)C)CC2)C1=O	> 100 µM
2. CC(C)C(N=C1CC2CCC1(C(=O)Nc1ccccc1O)C2(C)C)c1ccccc1 (stereo unspecified)	> 10 µM

Q: May I ask what TGI has been recorded for O=C(Nc1cccc(Cl)c1)Nc1cc(C(F)(F)F)ccc1Cl ?
Result: 7.75 µM

Q: How about C1=Nc2ccc(cc2)-c2ccc(cc2)N=Cc2ccccc2OCc2cccc(n2)COc2ccccc21 ?
Result: > 100 µM

Q: How about OC[C@@H](O)[C@H](O)[C@H](O)[C@@H](O)C1SCCCS1 ?
Result: > 100 µM

Q: How about CC(C)C(C=O)C(O)(C(F)(F)F)C(F)(F)F (stereo unspecified) ?
Result: > 100 µM

Q: How about COC(=O)/C(=C1\OC(=O)C(c2ccc(Cl)cc2)=C1O)c1ccc(Cl)cc1 ?
Result: > 100 µM

Q: How about COc1ccc(COc2ccc(Cc3cnc(N)nc3N)cc2OC)cc1 ?
Result: > 25 µM

Q: How about Nc1ncnc2c1ncn2Cc1ccc(CCl)cc1 ?
Result: 31.5 µM

Q: How about C=C1C(=O)O[C@H]2[C@H]1CC/C(COC(=O)NCCc1ccc(Br)cc1)=C\CC[C@@]1(C)O[C@@H]21 ?
Result: 3.69 µM

====

# System: HCC-2998 colon
# experimental_protocol: NCI tumour cell line growth inhibition, 48 h
Below is a list of entries, each paired with its recorded TGI value.

1) C=C1C(O)C2OC(=O)C(=C)C2C(OC(=O)/C(C)=C/C)CC2(C)OC2C2OC12 (configuration not stated)	21.6 µM
2) O=C1/C(=C/c2ccc(C(=O)O)cc2)CNC/C1=C\c1ccc(C(=O)O)cc1	> 100 µM
3) CN(C)CC(O)CNC(=O)Nc1ccccc1 (configuration not stated)	> 100 µM
4) O=C(O)[C@@H](Cc1ccccc1)NS(=O)(=O)c1ccc(-c2ccccc2)cc1	> 100 µM
5) COc1cccc2c1CCc1sc(CN3CCN(C)CC3)nc1-2	> 100 µM
6) O=Cc1cc2sc(C=O)cc2s1	> 100 µM
7) Clc1ccc(Nc2nnc(COc3ccccc3)c3ccccc23)cc1	8.36 µM
8) COc1cc(/C=[N+](\[O-])c2ccccc2Cl)ccc1OC(=S)S	> 100 µM
9) C=c1c2ccccc2oc2nc3[nH]c(N)c(C#N)c(N)c3c(=N)c12	66.7 µM
10) CCn1c(C)nc([N+](=O)[O-])c1Sc1ncc[nH]1	> 100 µM

Q: May I ask what TGI has been recorded for OC(CBr)C(O)C(O)C(O)CBr (configuration not stated) ?
Result: > 100 µM

Q: How about NC1=NN(c2ccccc2)C(=O)C1/C(=N\NC(=O)c1cc2ccccc2cc1O)C(=O)Nc1ccc(Cl)c(Cl)c1 (configuration not stated) ?
Result: > 100 µM

Q: How about O=C(O)C(=Cc1ccc(-c2ccc([N+](=O)[O-])cc2)o1)C(=O)O ?
Result: > 100 µM

Q: How about O=C(NC1CCCCC1)N1CCNC1=S ?
Result: > 100 µM

Q: How about Cc1ccccc1C1SCc2nc3ccccc3n21 (configuration not stated) ?
Result: > 100 µM

Q: How about COc1ccc(/C=C2\CCC(C)(CN(C)C)C2=O)cc1Br (configuration not stated) ?
Result: 35.8 µM

Q: How about Clc1cccc(C=NC23CC4CC(CC(C4)C2)C3)c1Cl ?
Result: > 10 µM

All values here come from PubChem BioAssay (NCI).
